From: patent US8754259B2

Assay: Cooling rating of test dentifrices relative to control dentifrice, panelists n=9
Assay type: in vivo, human
Details: 45 min; 1500 ppm coolant in dentifrice; control = 60 on 1-90 scale
Cooling Rating Relative to Control listing for selected compounds.
When you answer, write just the number.

CCNC(=O)C1CC(C)CCC1C(C)C (stereo not drawn) [l-WS-3, N-ethyl-ρ-menthan-3-carboxamide, reference compound] | 20.5
CCOC(=O)CNC(=O)[C@H]1C[C@H](C)CC[C@H]1C(C)C [NeoWS-5] | 21.4
CCNC(=O)[C@H]1C[C@H](C)CC[C@H]1C(C)C [Neo-WS-3] | 16.7

Now for another entry.
Given CCOC(=O)CNC(=O)C1CC(C)CCC1C(C)C (stereo not drawn) [l-WS-5, reference compound] , state its recorded Cooling Rating Relative to Control. 17.8

###

Assay: Cooling rating of test dentifrices relative to control dentifrice, panelists n=9
Assay type: in vivo, human
Conditions: 0 min; 1500 ppm coolant in dentifrice; control = 60 on 1-90 scale
property name: Cooling Rating Relative to Control
Lab note: jot down the number only; don't add units.

The following compounds have reported results that may help.
CCOC(=O)CNC(=O)[C@H]1C[C@H](C)CC[C@H]1C(C)C | 61.9
CCNC(=O)[C@H]1C[C@H](C)CC[C@H]1C(C)C | 43.3
CCNC(=O)C1CC(C)CCC1C(C)C (stereo not drawn) [l-WS-3, N-ethyl-ρ-menthan-3-carboxamide, reference compound] | 53.5

Now consider a different compound.
// Cooling Rating Relative to Control lookup, key: CCOC(=O)CNC(=O)C1CC(C)CCC1C(C)C (stereo not drawn) [l-WS-5, reference compound] 53.9
